Test system: 485176-168-R4-J1-PDC complex spheroid growth;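 also: spheroids exposed to compounds for seven days before readout; luminescence viability expressed relative to DMSO vehicle wells set as 100%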
Experiment: Anticancer human tumor 485176-168-R4-J1-PDC patient-derived pancreatic adenocarcinoma cell line growth inhibition [RAS]
Conditions: second compound 0.0949 µM; first compound 0.0316 µM; stronger effect = lower value
Reported Property: viability, T/C

# lookup: viability, T/C of CC1(O)CCCC1n1c(=O)c(C(F)F)cc2cnc(NC3CCN(S(C)(=O)=O)CC3)nc21 (configuration not stated) + CCn1c(-c2cc(N3CCN(C)CC3)cnc2C(C)OC)c2c3cc(ccc31)-c1csc(n1)CC(NC(=O)C1CC1C)C(=O)N1CCCC(N1)C(=O)OCC(C)(C)C2
59.4%

What measured viability, T/C goes with CC(C)NCC(C(=O)N1CCN(c2ncnc3c2C(C)CC3O)CC1)c1ccc(Cl)cc1 (configuration not stated) + CCn1c(-c2cccnc2C(C)OC)c2c3cc(ccc31)N1CCOC(CC(NC(=O)C(C(C)C)N(C)C(=O)C3(F)CCN(C(=O)C#CC(C)(C)N(C)C)CC3)C(=O)N3CCCC(N3)C(=O)OCC(C)(C)C2)C1 ?
94%

Ref: PubChem BioAssay AID2060906
